Biological target: UniProt:Q12866
Sequence (Q12866 21-999): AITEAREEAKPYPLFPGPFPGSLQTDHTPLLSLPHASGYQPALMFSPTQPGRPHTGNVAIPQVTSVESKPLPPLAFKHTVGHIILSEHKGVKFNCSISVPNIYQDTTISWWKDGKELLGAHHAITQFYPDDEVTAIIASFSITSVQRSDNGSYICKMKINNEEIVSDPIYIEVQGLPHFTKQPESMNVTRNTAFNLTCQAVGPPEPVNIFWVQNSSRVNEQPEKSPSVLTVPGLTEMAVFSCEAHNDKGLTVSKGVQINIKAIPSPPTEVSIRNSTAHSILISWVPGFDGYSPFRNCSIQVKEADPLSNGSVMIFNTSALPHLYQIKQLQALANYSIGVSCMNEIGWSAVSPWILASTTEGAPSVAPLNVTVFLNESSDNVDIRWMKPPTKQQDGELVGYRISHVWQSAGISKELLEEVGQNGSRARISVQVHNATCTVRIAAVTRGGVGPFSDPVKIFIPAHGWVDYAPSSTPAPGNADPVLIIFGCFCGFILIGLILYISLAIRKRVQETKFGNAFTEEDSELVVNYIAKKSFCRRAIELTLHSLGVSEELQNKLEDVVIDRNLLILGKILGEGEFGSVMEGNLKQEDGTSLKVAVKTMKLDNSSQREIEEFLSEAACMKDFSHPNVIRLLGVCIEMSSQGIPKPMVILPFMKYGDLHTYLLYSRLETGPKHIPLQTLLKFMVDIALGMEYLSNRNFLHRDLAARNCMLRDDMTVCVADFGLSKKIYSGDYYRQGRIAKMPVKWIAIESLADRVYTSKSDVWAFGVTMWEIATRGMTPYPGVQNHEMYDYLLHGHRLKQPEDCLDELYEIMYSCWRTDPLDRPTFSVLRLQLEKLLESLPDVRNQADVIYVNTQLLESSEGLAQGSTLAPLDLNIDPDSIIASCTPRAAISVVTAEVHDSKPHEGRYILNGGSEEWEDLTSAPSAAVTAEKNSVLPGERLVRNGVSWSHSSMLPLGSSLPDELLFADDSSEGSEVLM
Counter-ions that a name gives are not always drawn.
Catalogue of Ki readings, one per entry.

Use these answered entries as a reference point.
N[C@H]1CC[C@H](Nc2c(C(=O)NCc3ccc(-n4ccnc4)cc3)cnc3[nH]c(-c4ccccc4)cc23)CC1: < 100 nM
N[C@H]1CC[C@H](Nc2c(C(=O)Nc3ccc(F)cc3)cnc3[nH]c(C(F)(F)F)cc23)CC1 [Compound 135, hydrochloride]: < 100 nM
CCCc1cc2c(N[C@H]3CC[C@H](O)CC3)c(-c3ccc(CNCC45C[C@H]6C[C@@H](C4)C[C@@H](C5)C6)cn3)cnc2[nH]1: < 100 nM
CCCc1cc2c(N[C@H]3CC[C@H](O)CC3)c(C(=O)NCc3ccc(-n4ccnc4)cc3)cnc2[nH]1: < 100 nM
CCCc1cc2c(N[C@H]3CC[C@H](N)CC3)c(-c3ccnc(N4CCCC4)n3)cnc2[nH]1 [Compound 118, hydrochloride]: < 100 nM
CCC(CC)c1cc2c(N[C@H]3CC[C@H](N)CC3)c(C(=O)Nc3ccc(F)cc3)cnc2[nH]1: 100 to 1000 nM

API: value(readout=Ki, system=UniProt:Q12866) for record CCCc1cc2c(N[C@H]3CC[C@H](N)CC3)c(C(=O)Nc3ccc(F)cc3)cnc2[nH]1 [Compound 100, hydrochloride] < 100 nM

API: value(readout=Ki, system=UniProt:Q12866) for record CCC(OC)c1cc2c(N[C@H]3CC[C@H](N)CC3)c(C(=O)Nc3ccc(F)cc3)cnc2[nH]1 (some centres unmarked) 100 to 1000 nM

API: value(readout=Ki, system=UniProt:Q12866) for record CCCc1cc2c(N[C@H]3CC[C@H](O)CC3)c(-c3ccc(CN4CCOCC4)cc3)cnc2[nH]1 [Compound 106, hydrochloride] 100 to 1000 nM

API: value(readout=Ki, system=UniProt:Q12866) for record CCCCCc1cc2c(N[C@H]3CC[C@H](N)CC3)c(C(=O)NCc3ccc(-n4ccnc4)cc3)cnc2[nH]1 < 100 nM

API: value(readout=Ki, system=UniProt:Q12866) for record COCC(C)c1cc2c(N[C@H]3CC[C@H](N)CC3)c(C(=O)Nc3ccc(F)cc3)cnc2[nH]1 (some centres unmarked) 100 to 1000 nM
